system: Mus musculus; assay: Tested for change in body weight from onset to termination at dose of 2.5 mg/kg; type: functional
Known Activity of a selection of molecules
Give a bare numeral; the unit % is implied.

{"columns": ["MOLECULE", "Activity (%)"],
 "data": [
  ["CCCc1c(O)c(C=O)c(C=O)c(O)c1CCC", 9]
]}

Respond only with Activity recorded for O=Cc1ccccc1C=O [ORTHO-PHTHALALDEHYDE] 0

Return Activity for the following molecule: O=Cc1c(C=O)c(O)c2ccccc2c1O 14

// fetch Activity given entry Cc1c(C)c(O)c(C=O)c(C=O)c1O 23

###

test system: Mus musculus; test: Tested for mean survival time treated animal not surviving 50 days as a percentage at dose of 10 mg/kg; type: functional
Recorded Activity by entry
The response must be a number in % with no trailing unit.

{"columns": ["COMPOUND", "TGT", "PARAMETER", "UNITS LABEL", "OBS VALUE"],
 "data": [
  ["O=Cc1ccccc1C=O", "Mus musculus", "Activity", "%", 43],
  ["COc1c(C)c(C)c(OC)c(C=O)c1C=O", "Mus musculus", "Activity", "%", 96]
]}

Give recorded Activity. Cc1c(C)c(O)c(C=O)c(C)c1O 94

Look up and state reported Activity for CC(=O)Oc1c(C)c(C)c(OC(C)=O)c2c1C(OC(C)=O)OC2OC(C)=O (configuration not stated) 149

Answer with reported Activity of Cc1c(C)c(O)c(C=O)c(C=O)c1O 195

Please supply the value of reported Activity for the item O=Cc1c(C=O)c(O)c2ccccc2c1O 90

Identify measured Activity corresponding to CCCc1c(O)c(C=O)c(C=O)c(O)c1CCC 178
